# Tested on: Staphylococcus aureus
# protocol: Antibacterial activity against Staphylococcus aureus ATCC 29213 by broth microdilution assay
# Format: functional
observable: MIC (µg/mL)
Quick note: give the figure in µg/mL, leave out the unit.

I have this compound here, COc1ccc2c(C)nc(Nc3nc(O)c4ccccc4n3)nc2c1 , and I need its recorded MIC.
32

Quick one: MIC for Cc1ccc2nc(Nc3nc(O)c4ccccc4n3)nc(C)c2c1 ?
32

Given the compound COc1ccc2nc(Nc3nc(O)c4ccccc4n3)nc(C)c2c1 , what is its reported MIC?
0.5

Any idea what its MIC is? The compound is COc1cc2nc(Nc3nc(O)c4ccccc4n3)nc(C)c2cc1OC
4

Which MIC is reported for this compound? COc1cccc2c(C)nc(Nc3nc(O)c4ccccc4n3)nc12
0.5

###

Kindly supply the reported pIC50 values for the records listed here.
# protocol: Inhibition of Streptococcus pyogenes DNA polymerase 3
Quick note: pIC50 values are minus log10 of concentrations in mol/L.

Which pIC50 value belongs to COc1ccc2nc(Nc3nc(O)c4ccc(N)cc4n3)nc(C)c2c1 ?
5.33

Name the reported pIC50 value associated with the molecule COc1ccc2c(O)nc(Nc3nc(C)c4cc(OC)ccc4n3)nc2c1
5.42

Looking for the measured pIC50 of CCNc1ccc2c(O)nc(Nc3nc(C)c4cc(OC)ccc4n3)nc2c1 , can you help?
6.40

What does the data say about its pIC50? Entry: COc1ccc2c(C)nc(Nc3nc(O)c4ccccc4n3)nc2c1
4.15

###

# protocol: Inhibition of mammalian DNA polymerase […] delta
What pIC50 was measured for each of the following?
pIC50 is a log-scale quantity: -log10 of the concentration expressed in molar.

Recorded pIC50 for COc1ccc2nc(Nc3nc(O)c4ccc(N(C)C)cc4n3)nc(C)c2c1 , please?
6.40

Suppose we examine the compound COc1ccc2nc(Nc3nc(O)c4cc(C)ccc4n3)nc(C)c2c1 ; what pIC50 value has been reported?
5.77

Which pIC50 value is on record for COc1ccc2nc(Nc3nc(O)c4c(C)cccc4n3)nc(C)c2c1 ?
5.92

###

# protocol: Inhibition of Streptococcus pyogenes DNA polymerase 3
pIC50: −log10 of the molar value.
So basically: pIC50 at 6 or higher? That is 1. Lower than 6? That is -1.

pIC50 >= 6 for COc1ccc2nc(Nc3nc(O)c4ccccc4n3)nc(C)c2c1 ?
-1

Given COc1ccc2nc(Nc3nc(O)c4ccc(N(C)C)cc4n3)nc(C)c2c1 , state whether its pIC50 is at least 6.
1

Hi, just wondering whether COc1ccc2nc(Nc3nc(O)c4ccc(F)cc4n3)nc(C)c2c1 shows pIC50 of 6 or higher.
-1

Given COc1ccc2nc(Nc3nc(O)c4ccc(Cl)cc4n3)nc(C)c2c1 , state whether its pIC50 is at least 6.
-1

Answer whether pIC50 of CNc1ccc2c(O)nc(Nc3nc(C)c4cc(OC)ccc4n3)nc2c1 is greater than or equal to 6.
1

###

Please respond with reported log10 IC50 for every item in the list.
# protocol: Inhibition of Streptococcus pyogenes DNA polymerase 3
Please keep in mind that the values are log10 of IC50 expressed in µM.

// log10 IC50 lookup, key: COc1cc2nc(Nc3nc(O)c4ccccc4n3)nc(C)c2cc1OC
0.30

For COc1ccc2nc(Nc3nc(O)c4c(Cl)cccc4n3)nc(C)c2c1 , what is its reported log10 IC50?
-0.25

Look up log10 IC50: COc1ccc2nc(Nc3nc(O)c4ccc(NC(C)=O)cc4n3)nc(C)c2c1
0.74

Any idea what its log10 IC50 is? The compound is Cc1ccc2nc(Nc3nc(O)c4ccccc4n3)nc(C)c2c1
2.32

Reported log10 IC50, compound COc1ccc2nc(Nc3nc(O)c4ccc(C)cc4n3)nc(C)c2c1 : ____
0.57

Bench note: what log10 IC50 did COc1ccc2nc(Nc3nc(O)c4cc([N+](=O)[O-])ccc4n3)nc(C)c2c1 show?
0.94

What does the data say about its log10 IC50? Entry: COc1ccc2nc(Nc3nc(O)c4c(OC)cccc4n3)nc(C)c2c1
-0.22

Query (compound): COc1cccc2c(C)nc(Nc3nc(O)c4ccccc4n3)nc12 ; field requested: log10 IC50
0.49

Using the record for Cc1cc2nc(Nc3nc(O)c4ccccc4n3)nc(C)c2cc1C , report its log10 IC50.
1.43

Request the reported log10 IC50 associated with COc1ccc2nc(Nc3nc(O)c4cc(C)ccc4n3)nc(C)c2c1
0.45

###

# protocol: Inhibition of mammalian DNA polymerase […] delta
Kindly state IC50 for each of the entries shown.

// query IC50 value for entry COc1ccc2nc(Nc3nc(O)c4c(Cl)cccc4n3)nc(C)c2c1
900 nM

I am curious: what IC50 value has been reported for COc1ccc2c(O)nc(Nc3nc(C)c4cc(OC)ccc4n3)nc2c1 ?
1800 nM

Quick one: IC50 of COc1ccc2nc(Nc3nc(O)c4ccc([N+](=O)[O-])cc4n3)nc(C)c2c1 ?
400 nM

Any idea what its IC50 is? The compound is CCNc1ccc2c(O)nc(Nc3nc(C)c4cc(OC)ccc4n3)nc2c1
400 nM

Fill blank: measured IC50 of the compound COc1ccc2nc(Nc3nc(O)c4ccc(N)cc4n3)nc(C)c2c1 is ____.
4900 nM

Tell me the measured IC50 of COc1ccc2nc(Nc3nc(O)c4ccc(NC(C)=O)cc4n3)nc(C)c2c1 , please.
5000 nM

GET /values?readout=IC50&item= COc1ccc2nc(Nc3nc(O)c4c(OC)cccc4n3)nc(C)c2c1
1000 nM

Looking for the measured IC50 of CNc1ccc2c(O)nc(Nc3nc(C)c4cc(OC)ccc4n3)nc2c1 , can you help?
200 nM

Report IC50 for COc1ccc2nc(Nc3nc(O)c4ccc(F)cc4n3)nc(C)c2c1 please.
1900 nM

Look up IC50 for this compound: COc1ccc2nc(Nc3nc(O)c4ccc(C)cc4n3)nc(C)c2c1
2000 nM

Param item = COc1ccc2nc(Nc3nc(O)c4cc([N+](=O)[O-])ccc4n3)nc(C)c2c1 ; retrieve measured IC50.
14900 nM
